- Tested on: THP-1 (AML) cells
- ASSAY PROTOCOL: LSD1 CD11b cellular assay (flow cytometry)
- Assay type: cell-based
- CONDITION CONTEXT: Homo sapiens, 96 h; CD11b expression in THP-1 (AML) cells, flow cytometry, 4 days incubation; read-out: Cellular IC50
pIC50: −log10 of the molar value. Structures can show the parent of a compound that is named as a salt.
MEASURED ENDPOINT: pIC50

Use the examples below as a reference point.
[[record]]
molecule = "Cn1cnc2cc(-c3cnc(N4CCC5CNCC5CC4)nc3-c3ccc(C#N)cc3)c(F)c(F)c21 (centres unmarked)"
value = "> 7.00"

[[record]]
molecule = "Cc1ccc(-c2cnc(N[C@@H]3C[C@H]4CNC[C@H]4C3)nc2-c2ccc(C#N)cc2)cc1"
value = "6.00 to 7.00"

[[record]]
molecule = "Cn1ccc2nc(-c3cnc(N4CCC(N)CC4)nc3-c3ccc(C#N)cc3)ccc21"
value = "6.00 to 7.00"

[[record]]
molecule = "COc1ccc(-c2nc3ccn(C[C@H]4CCNC4)c3cc2-c2ccc(C#N)cc2)cc1F [Example 51, HCl salt]"
value = "> 7.00"

[[record]]
molecule = "Cn1cc2ccc(-c3cnc(N4CCC(N)CC4)nc3-c3ccc(C#N)cc3)cc2n1"
value = "> 7.00"

[[record]]
molecule = "Cc1ccc(-c2nc3cnn(C4CCNCC4)c3cc2-c2ccc(C#N)cc2)cc1"
value = "< 5.00"

[[record]]
molecule = "N#Cc1ccc(-c2nc(N3CCC(N)CC3)ncc2-c2cnc(NC3CC3)nc2)cc1F"
value = "> 7.00"

[[record]]
molecule = "N#Cc1ccc(-c2nc(N3CCC4(CCNC4)CC3)ncc2-c2cnn(CC(F)(F)F)c2)cc1"
value = "> 7.00"

[[record]]
molecule = "N#Cc1ccc(-c2cc3c(ccn3C[C@H]3CCNC3)nc2-c2ccc(F)cc2)cc1"
value = "5.00 to 6.00"

[[record]]
molecule = "Cn1cc2cc(-c3cnc(N4CCCC(N)C4)nc3-c3ccc(C#N)c(F)c3)ccc2n1 (centres unmarked)"
value = "> 7.00"


Incoming: Provide measured pIC50 value, entry: COc1nc(N2CCCC(N)CC2)nc(-c2ccc(C#N)c(F)c2)c1-c1ccc2nn(C)cc2c1 (centres unmarked)
Outgoing: > 7.00

Incoming: Assign pIC50 to the following record: Cc1ccc(-c2nc3cnn(CC4CCNC4)c3cc2-c2ccc(C#N)cc2)cc1 (centres unmarked)
Outgoing: > 7.00

Incoming: Indicate the recorded pIC50 value for this molecule: Cc1ccc(-c2cnc(N3CCC4CNCC4C3)nc2-c2ccc(C#N)cc2)cc1 (centres unmarked)
Outgoing: > 7.00

###

- Tested on: THP-1 (AML) cells
- ASSAY PROTOCOL: LSD1 CD11b cellular assay (flow cytometry)
- Type: cell-based
- CONDITION CONTEXT: Homo sapiens, 96 h; CD11b expression in THP-1 (AML) cells, flow cytometry, 4 days incubation; read-out: Cellular IC50
pIC50: −log10 of the molar value. Structures can show the parent of a compound that is named as a salt.
MEASURED ENDPOINT: pIC50

Take a look at these entries with their results.
[[record]]
compound = "COc1ccc(-c2nc3ccn(CC4CCNC4)c3cc2-c2ccc(C#N)c(F)c2)cc1F (stereo in doubt) [Example 55, HCl salt]"
value = "> 7.00"

[[record]]
compound = "Cn1ncc2cc(-c3cnc(N4CCC(N)C(O)C4)nc3-c3ccc(C#N)c(F)c3)ccc21 (centres unmarked) [Example 101]"
value = "> 7.00"

[[record]]
compound = "Cn1ncc2cc(-c3cnc(N4CC5CNCC(C5)C4)nc3-c3ccc(C#N)cc3)ccc21 [Example 120]"
value = "6.00 to 7.00"


Incoming: Supply measured pIC50 of CNc1nc(N2CCC(N)CC2)nc(-c2ccc(C#N)c(F)c2)c1-c1ccc2c(c1)nnn2C [Example 165] in your reply.
Outgoing: > 7.00

Incoming: Complete the entry with pIC50 for COc1ccc(-c2nc3ccn(C[C@@H]4CCNC4)c3cc2-c2ccc(C#N)c(F)c2)cc1F [Example 53, HCl salt]
Outgoing: > 7.00

Incoming: Supply pIC50 value. Item: Cn1nccc1C#Cc1cnc(N2CCC(N)CC2)nc1-c1ccc(C#N)c(F)c1 [Example 106]
Outgoing: 6.00 to 7.00

Incoming: Report measured pIC50; entry is Cc1ccc(-c2cnc(N3CCC4CNCC4CC3)nc2-c2ccc(C#N)cc2)cn1 (centres unmarked) [Example 114]
Outgoing: 6.00 to 7.00

Incoming: Give pIC50 for the following compound: CNc1nc(N2CCC(N)CC2)nc(-c2ccc(C#N)c(F)c2)c1-c1cnc2c(c1)nnn2C [Example 171]
Outgoing: > 7.00
